assay-name: growth effects on S. cerevisiae YJM789 – YJM789 clinical isolate, OD600, 24 h, basal, primary screen (AID 1089);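 further: growth of clinical yeast isolate S. cerevisiae YJM 789 seeded 1000 cells per well; test concentration not given here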
run-parameters: higher = more signal, called active from +8 up or from −8 down
measure-name: z-score
Provide a numeric answer; units are not to be included.

O=C1O[C@H](c2ccccc2)[C@H](c2ccccc2)N2[C@H]1[C@@H](C(=O)N1CCCCCCC1)[C@]1(C(=O)Nc3ccccc31)[C@H]2c1ccc(O)cc1 :: 0.532
O=C(C=C(CC(O)c1cccc(Cl)c1)OCCF)OCCF (centres undefined) :: -2.44
COc1ccc(C#Cc2ccc3c(c2)[C@]2(C(=O)N3)[C@H](C(N)=O)[C@H]3C(=O)O[C@H](c4ccccc4)[C@H](c4ccccc4)N3[C@@H]2c2ccc(O)cc2)cc1 :: 1.47

Here is another molecule to look at.
Noted for [N-]=[N+]=NCc1ccccc1[C@H]1OC(c2ccc(OCCCO)cc2)=N[C@@]1(Cc1ccccc1N=[N+]=[N-])C(=O)N1CCCCC1 : its z-score reads 0.401

----------
experimental-target: Carbonic anhydrase 2 (Homo sapiens) (UniProt P00918)
assay-name: compounds binding carbonic anhydrase 2 – biochemical, small-molecule microarray, Alexa647-labelled CAII, profiling panel (AID 1122)
run-parameters: CAII-A647 binding fluorescence, higher = more signal
Label rule, in plain words: composite z-score of 0.6 and up is Y, under 0.6 is N.

Use these answered entries as a reference point.
CCCc1cc2c(n1Cc1ccc(OC)cc1)C(C)C1CN(C(=O)c3ccccc3)C(C)(C(=O)OC)C21 (configuration not stated) :: N
CC(C)N1C(=O)c2ccccc2[C@](C)(C(=O)O)[C@@H]1c1ccc(CO)cc1 :: N

Query :: Does the reported composite z-score for Cc1ccc(S[C@]2(C(=O)NCC(C)C)CC(=O)N(C3CCCCC3)[C@@H]2c2ccc(CO)cc2I)cc1 fall at or above the 0.6 mark?
Result :: Y

Query :: Does the reported composite z-score for C=CCC(OC(C)=O)[C@@H]1[C@@H](N(Cc2ccc(-c3cccc(C(F)(F)F)c3)o2)C(=O)c2cccc3ccccc23)c2cc(OCCCO)ccc2N1C(=O)c1ccc(-c2ccccc2)cc1 (some centres not stated) fall at or above the 0.6 mark?
Result :: N

Query :: Does the reported composite z-score for COc1ccccc1CN1C(=O)c2ccccc2[C@@]2(Cc3ccccc3N(C3CC3)C2=O)[C@@H]1c1ccc(CO)cc1 fall at or above the 0.6 mark?
Result :: Y

Query :: Does the reported composite z-score for C=CCNC(=O)[C@@H]1[C@H]2C(=O)O[C@H](c3ccccc3)[C@H](c3ccccc3)N2[C@H](c2ccc(O)cc2)[C@@]12C(=O)Nc1ccc(C#CCCO)cc12 fall at or above the 0.6 mark?
Result :: Y

Query :: Does the reported composite z-score for [N-]=[N+]=NCc1ccccc1[C@H]1OC(c2ccc(OCCCO)cc2)=N[C@@]1(Cc1ccccc1N=[N+]=[N-])C(=O)N1CCCCC1 fall at or above the 0.6 mark?
Result :: N

----------
experimental-target: Calmodulin-1 (Homo sapiens) (UniProt P0DP23)
assay-name: small molecules binding Ca-loaded calmodulin-1 – biochemical, small-molecule microarray, Cy5-labelled CALM1, plus calcium, artefact control for SMM control-protein annotation, profiling panel (AID 1112);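 further: score merges spot fluorescence with signal to noise from triplicate slides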
run-parameters: Cy5-CALM1 binding fluorescence, higher = more signal
Measured composite z-score of individual entries
Provide a numeric answer; units are not to be included.

For orientation, consider the following solved cases.
COc1cc(C(O)C2C=CC3C(=O)NC(=O)C3N2Nc2ccc(Cl)cc2Cl)cc(OC)c1OC (stereo not given) :: 0.866
COc1ccc([Si](C)(C)[C@H]2[C@H](CC(=O)N3CCC[C@H]3CO)O[C@@]3(C(=O)N(Cc4ccc(N5C(=O)c6cccc7cccc5c67)cc4)c4ccccc43)[C@@H]2C)cc1 :: -0.544
NC(=O)NCC#Cc1ccc2c(c1)[C@]1(C(=O)N2)[C@H](c2ccc(O)cc2)N2[C@H](c3ccccc3)[C@H](c3ccccc3)OC(=O)[C@H]2[C@@H]1C(=O)NC[C@H](O)c1ccccc1 :: 0.827

# composite z-score measured on Calmodulin-1 (Homo sapiens) (UniProt P0DP23) for item COc1cccc(C)c1NC(=O)O[C@H]1[C@H](OC(=O)Nc2ccccc2)[C@H](OC(=O)Nc2ccccc2)[C@@H](OC)O[C@@H]1CO = 0.645

# composite z-score measured on Calmodulin-1 (Homo sapiens) (UniProt P0DP23) for item N#Cc1ccc(NN2C(C(O)c3ccccc3)C=CC3C(=O)N(c4ccccc4)C(=O)C32)cc1 (stereo not given) = -0.162

----------
assay-name: S6 kinase pathway phospho-S6 level changes – cell-based, A549, cytoblot, luminescence, serum-stimulated, primary screen (AID 1158);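 further: serum-stimulated A549 lung adenocarcinoma cells; signal is phosphorylated S6 detected by cytoblot immunostaining with HRP secondary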
run-parameters: 5 h, higher = more signal
Measured z-score of individual entries
Provide a numeric answer; units are not to be included.

For orientation, consider the following solved cases.
CCOC(=O)C1=CC[C@@H](c2ccc(N(CC)CC)cc2)N(S(=O)(=O)c2ccc(C)cc2)[C@H]1c1ccc([N+](=O)[O-])cc1 :: -0.779
O=C1N(CCS(=O)(=O)c2ccccc2)c2ccccc2[C@H]2OC(c3ccc(OCCCO)cc3)=N[C@@]12CCS(=O)(=O)c1ccccc1 :: -0.357
COC(=O)c1ccc(OC)c(/C=C\CC(CCc2ccccc2)OC(C)=O)c1 (configuration not stated) :: -0.0781
C=CC[C@@]1(C(=O)NCC(O)CO)N=C(c2ccc(OCCCO)cc2)O[C@@H]1c1ccccc1 (some centres not stated) :: -0.0453
COc1ccc(CCNC(=O)[C@@H]2c3ccccc3C(=O)N(Cc3ccccc3)[C@H]2c2ccc(CO)cc2)cc1 :: 1.89

Noted for C=CCOC(=O)[C@@H]1[C@H]2C(=O)O[C@H](c3ccccc3)[C@H](c3ccccc3)N2[C@H](c2ccc(OCCOC(=O)[C@@H]3C[C@@H]4C(=O)N[C@@H](CCCCNC(C)=O)C(=O)N4[C@@H]3c3ccc(O)cc3)cc2)[C@@]12C(=O)Nc1ccc(I)cc12 : its z-score reads -0.581

Noted for CN1C(=O)C2C=CC(C(O)c3cccc4ccccc34)N(NC(=O)OC(C)(C)C)C2C1=O (configuration not stated) : its z-score reads -1.22

Noted for Cc1ccc(S[C@]2(C(=O)NCC(C)C)CC(=O)N(C3CCCCC3)[C@@H]2c2ccc(CO)cc2I)cc1 : its z-score reads 0.212

----------
experimental-target: Left-right determination factor 2 (Homo sapiens) (UniProt O00292)
Sequence (O00292 whole entry, looked up): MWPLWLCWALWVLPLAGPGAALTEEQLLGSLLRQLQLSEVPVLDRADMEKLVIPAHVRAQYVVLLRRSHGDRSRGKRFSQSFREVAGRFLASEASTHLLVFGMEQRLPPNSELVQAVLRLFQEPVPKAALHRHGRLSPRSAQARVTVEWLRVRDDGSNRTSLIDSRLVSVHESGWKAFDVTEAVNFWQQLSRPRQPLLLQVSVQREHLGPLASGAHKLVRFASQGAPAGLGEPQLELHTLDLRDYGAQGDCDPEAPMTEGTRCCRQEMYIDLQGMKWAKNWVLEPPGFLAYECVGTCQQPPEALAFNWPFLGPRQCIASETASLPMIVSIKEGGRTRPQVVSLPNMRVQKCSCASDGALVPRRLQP
assay-name: small molecules binding LEFTY2 protein – biochemical, small-molecule microarray, 635 nm fluorescence scan, primary screen (AID 1110)
run-parameters: higher = more signal
Label rule, in plain words: composite z-score of -0.07 and up is 1 (yes), under -0.07 is 0 (no).

Use these answered entries as a reference point.
[N-]=[N+]=NCc1ccccc1C[C@]1(C(=O)NCCN2CCOCC2)N=C(c2ccc(OCCCO)cc2)O[C@H]1c1ccccc1 :: 0 (no)
COc1ccc(C#Cc2ccc3c(c2)[C@]2(C(=O)N3)[C@H](c3ccc(OCCO)cc3)N3[C@H](c4ccccc4)[C@H](c4ccccc4)OC(=O)[C@H]3[C@@H]2C(=O)N2CCN(c3ncccn3)CC2)cc1 :: 1 (yes)
COC(=O)[C@@]1(Cc2ccc(F)cc2)[C@@H]2[C@@H](CC(=O)[C@H]2CC(=O)C(=O)N2CCCC2)CN1C(=O)c1ccccc1 :: 0 (no)
CC(C)CNC(=O)[C@@]1(C)c2ccccc2C(=O)N(Cc2ccccc2)[C@H]1c1ccc(CO)cc1 :: 0 (no)

Now, please, on to the next compound.
Query :: Does the reported composite z-score for CO[C@H]1O[C@H](CO)[C@@H](OC(=O)Nc2ccc(C(F)(F)F)cc2)[C@H](OC(=O)Nc2ccccc2)[C@H]1OC(=O)Nc1ccccc1 fall at or above the -0.07 mark?
Result :: 1 (yes)

----------
assay-name: growth modulation of vineyard yeast isolate – strain RM11-1a, OD600, basal, 24 h, primary screen (AID 1177);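 further: cultures grown under basal conditions with no added stressor; test concentration not given here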
run-parameters: S. cerevisiae RM11-1a growth, OD600, 24 h; higher = more signal, called active from +8 up or from −8 down
Label rule, in plain words: z-score of 0.2 and up is T, under 0.2 is F.

Use these answered entries as a reference point.
O=C1O[C@H](c2ccccc2)[C@H](c2ccccc2)N2[C@H]1[C@@H](C(=O)N1CCCCCCC1)[C@]1(C(=O)Nc3ccc(C#CCCO)cc31)[C@H]2c1ccc(OCCO)cc1 :: F
O=c1c2ccc(Br)cc2nc(-c2ccccc2)n1Cc1cccc(O)c1 :: F
O=C(Nc1cc(Br)ccc1C(=O)NCc1cccc(O)c1)c1ccccc1 :: T

Query :: Does the reported z-score for CCCC[C@@H](O)C1=C(COc2ccccc2)Cn2c(=O)n(-c3ccccc3)c(=O)n2[C@H]1CO fall at or above the 0.2 mark?
Result :: F

----------
assay-name: small molecules captured by biotinylated probe aFGF2 – biochemical, small-molecule microarray, fluorescence 635/667, stem cell growth factor project, primary screen (AID 1067);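 further: measures binding of biotinylated aFGF2 protein to printed compounds on slides; z-score merges feature fluorescence and signal-to-noise across triplicate slides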
run-parameters: higher = more signal
Measured composite z-score of individual entries
Provide a numeric answer; units are not to be included.

Noted for CC(C)NC(=O)[C@@]1(Cc2ccccc2I)c2ccccc2C(=O)N(Cc2ccccc2C(F)(F)F)[C@H]1c1ccc(CO)cc1 : its composite z-score reads -0.0316

Noted for COc1ccccc1CN1C(=O)c2ccccc2[C@@]2(Cc3ccccc3N(C3CC3)C2=O)[C@@H]1c1ccc(CO)cc1 : its composite z-score reads -0.107

Noted for COCCOC(=O)N1C(=O)[C@@]2(c3cc(C#CCC(C(=O)OC)C(=O)OC)ccc31)[C@H](C(=O)N1CCCCCCC1)[C@H]1C(=O)O[C@H](c3ccccc3)[C@H](c3ccccc3)N1[C@@H]2c1ccc(O)cc1 : its composite z-score reads 0.146

Noted for COC(=O)[C@@]1(Cc2ccc(OC)cc2)[C@H]2c3cc(C(=O)N(C)C)n(CCF)c3C[C@H]2CN1C(=O)c1ccccc1 : its composite z-score reads 0.0398

Noted for CCCN1C(=O)[C@@H]2Cc3c([nH]c4ccccc34)[C@@H](c3cccc(O)c3)N2C1=O : its composite z-score reads -0.113

Noted for COC(=O)[C@@]1(Cc2ccc(F)cc2)[C@H]2c3cc(C(=O)N(C)C)n(CCSCCO)c3C[C@H]2CN1C(=O)c1ccccc1 : its composite z-score reads 0.203

Noted for COc1cc(C(O)C2C=CC3C(=O)NC(=O)C3N2Nc2ccc(Cl)cc2Cl)cc(OC)c1OC (configuration not stated) : its composite z-score reads 0.0461
